# System: Pseudomonas aeruginosa
# Assay: MIC against clinical isolates
# Type: cell-based
# Assay setup: clinical isolate GN 1091; unit assumed
Measured parameter: MIC (µg/mL)
One number for each entry, in µg/mL.

[
  {
    "Molecule": "CC(=O)OCC1=C(C(=O)O)N2C(=O)C(NC(=O)C(NC(=O)N3CCN(C)C(=O)C3=O)c3ccccc3)C2SC1 (single isomer, unassigned)",
    "Measured parameter": "MIC",
    "Reported result": 50
  },
  {
    "Molecule": "CCCCN1CCN(C(=O)N[C@@H](C(=O)N[C@@H]2C(=O)N3[C@@H]2SC(C)(C)[C@@H]3C(=O)O)c2ccccc2)C(=O)C1",
    "Measured parameter": "MIC",
    "Reported result": 25
  },
  {
    "Molecule": "CC1(C)S[C@@H]2[C@H](NC(=O)C(C(=O)O)c3ccccc3)C(=O)N2[C@H]1C(=O)O (stereo partly drawn) [Sodium Carbenicillin, SodiumCarbenicillin, reference compound]",
    "Measured parameter": "MIC",
    "Reported result": 100
  },
  {
    "Molecule": "CCN1CCN(C(=O)NC(C(=O)NC2C(=O)N3C(C(=O)O)=C(CSc4nnnn4C)CSC23)c2ccccc2)C(=O)C1=O (stereo not drawn)",
    "Measured parameter": "MIC",
    "Reported result": 12.5
  }
]

Kindly review the next molecule as well.
For Pseudomonas aeruginosa, give the measured MIC of the entry CC(=O)N1CCN(C(=O)N[C@@H](C(=O)N[C@@H]2C(=O)N3[C@@H]2SC(C)(C)[C@@H]3C(=O)O)c2ccccc2)C(=O)C1
25
